target: HLA-A2 on T2 cells pulsed with GRID1: 7-15 peptide (human); assay: flow cytometry, 10 ug/ml, pulsed T2 cells

{"Binder": "mAb28042P (antibody, human IgG4 S228P, kappa, V domains shown) VH: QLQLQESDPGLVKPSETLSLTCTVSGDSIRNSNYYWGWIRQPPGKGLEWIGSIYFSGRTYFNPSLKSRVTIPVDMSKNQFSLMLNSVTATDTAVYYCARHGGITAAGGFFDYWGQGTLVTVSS VL: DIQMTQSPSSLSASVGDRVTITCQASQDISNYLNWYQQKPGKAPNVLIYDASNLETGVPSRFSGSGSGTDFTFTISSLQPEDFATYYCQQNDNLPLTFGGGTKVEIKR", "ratio of MFI, pulsed to unpulsed (ratio)": 17.4}
{"Binder": "mAb24958N (antibody, human IgG4 S228P, kappa, V domains shown) VH: QVQLQESGPGLVKPSQTLSLTCTVSGGSIISDGYYWSWIRQHPGKGLEWIGYVDYSGNTYYNPSLKSRIIMSVDTSKNQFSLKLTSVTAADTAVYFCVREGPLRDAFEIWGQGTMVTVSS VL: DIQMTQSPSSLSASVGDRVTITCRTSQSISRYLNWYQQKPGKAPKLLIFAASSLQSGVPSRFSGSGSGADFTLTISSLQPEDFATYYCQQSYSTPPITFGQGTRLEIKR", "ratio of MFI, pulsed to unpulsed (ratio)": 0.7}
{"Binder": "mAb28037P2 (antibody, human IgG4 S228P, kappa, V domains shown) VH: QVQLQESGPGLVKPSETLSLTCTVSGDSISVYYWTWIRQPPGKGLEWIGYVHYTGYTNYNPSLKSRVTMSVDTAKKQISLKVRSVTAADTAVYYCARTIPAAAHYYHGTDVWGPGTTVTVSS VL: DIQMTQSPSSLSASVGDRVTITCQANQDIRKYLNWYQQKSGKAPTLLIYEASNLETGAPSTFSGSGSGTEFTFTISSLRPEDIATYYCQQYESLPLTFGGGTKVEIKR", "ratio of MFI, pulsed to unpulsed (ratio)": 0.7}
{"Binder": "mAb28105P (antibody, human IgG4 S228P, kappa, V domains shown) VH: EVQLVESGGGVVQPGGSLRLSCEASGFIFDDYAMHWVRQAPGKGLEWVSLISGDGDIIYYADSVKGRFTISRDNSKNSLYLQMNSLIIEDTALYYCAKDWVFGVVMTHYWYFGLDVWGQGTTVTVSS VL: DIQMTQSPSSLSASEGDRVTITCRASQSISTYLNWYQQKPGKAPKLLIYGASSLQSGVPSRFSGSGSGTDFTLTISSLQPEDFATYYCQQSYSTPPITFGQGTKVEIKR", "ratio of MFI, pulsed to unpulsed (ratio)": 0.7}
{"Binder": "mAb29814P (antibody, human IgG4 S228P, kappa, V domains shown) VH: QVQLVESGGGVVQPGRSLRLSCVASGFTFSSYGMHWVRQAPGKGLEWVAVIWYVGSNKYYGDSVKGRFTISRDNSKNTLYLQMNSLRAEDTAVYYCARDLIADRPGYYYNGMDVWGQGTTVTVSS VL: EIVMTQSPVTLFVSPGERATLSCRASQSVNTNLAWYQQQPGQAPRLLIHGASTRPTGVPARFSGSGSGTEFTLIISSLQSEDFAVYYCQQYNNWPPWTFGQGTKVEIKR", "ratio of MFI, pulsed to unpulsed (ratio)": 1.6}
{"Binder": "mAb28128P (antibody, human IgG4 S228P, kappa, V domains shown) VH: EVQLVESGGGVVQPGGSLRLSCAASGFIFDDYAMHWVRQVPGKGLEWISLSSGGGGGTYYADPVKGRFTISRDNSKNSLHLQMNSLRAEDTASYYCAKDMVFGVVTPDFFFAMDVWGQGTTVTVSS VL: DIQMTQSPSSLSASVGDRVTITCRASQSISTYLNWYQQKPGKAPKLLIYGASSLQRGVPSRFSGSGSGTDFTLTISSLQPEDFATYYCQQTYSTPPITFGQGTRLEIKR", "ratio of MFI, pulsed to unpulsed (ratio)": 1.6}
{"Binder": "mAb24959N (antibody, human IgG4 S228P, kappa, V domains shown) VH: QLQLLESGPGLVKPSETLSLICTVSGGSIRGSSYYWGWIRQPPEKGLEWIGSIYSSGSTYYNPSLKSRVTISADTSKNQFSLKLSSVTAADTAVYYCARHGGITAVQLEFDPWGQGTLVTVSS VL: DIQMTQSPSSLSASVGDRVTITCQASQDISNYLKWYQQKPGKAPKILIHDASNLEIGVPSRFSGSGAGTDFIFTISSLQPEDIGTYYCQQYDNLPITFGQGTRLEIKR", "ratio of MFI, pulsed to unpulsed (ratio)": 3.2}
